All values here come from patent US20260015426A1.

- TARGET OF ASSAY: T1, hu-M-IL1RAP construct, positions S21-T367 (extracellular domain of the membrane form of human IL1RAP) (human, UniProt Q9NPH3 21-367)
- T1 construct: Biotinylated when captured on the Biacore chip
- T1 sequence: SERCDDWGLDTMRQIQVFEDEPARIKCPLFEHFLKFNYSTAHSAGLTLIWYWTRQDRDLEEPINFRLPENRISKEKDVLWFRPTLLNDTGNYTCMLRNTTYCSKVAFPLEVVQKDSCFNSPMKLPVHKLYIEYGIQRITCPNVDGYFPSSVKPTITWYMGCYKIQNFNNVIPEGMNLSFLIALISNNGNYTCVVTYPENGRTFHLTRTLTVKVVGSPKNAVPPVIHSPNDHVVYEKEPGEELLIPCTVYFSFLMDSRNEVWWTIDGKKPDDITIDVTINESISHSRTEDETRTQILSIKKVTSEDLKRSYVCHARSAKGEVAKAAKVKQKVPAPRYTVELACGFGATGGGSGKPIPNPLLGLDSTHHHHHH
- METHOD: SPR, Fab analyte, 37 C
Kd: recorded values

| BINDER | UOM | Kd |
| --- | --- | --- |
| K10/H2 Fab (VL-A51Y, VH-R96D) (Fab, V domains shown, Fab with 8xHis tag) VH: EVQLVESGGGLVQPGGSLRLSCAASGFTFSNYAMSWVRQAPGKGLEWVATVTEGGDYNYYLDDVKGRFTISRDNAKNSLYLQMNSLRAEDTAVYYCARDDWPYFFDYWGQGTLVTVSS VL: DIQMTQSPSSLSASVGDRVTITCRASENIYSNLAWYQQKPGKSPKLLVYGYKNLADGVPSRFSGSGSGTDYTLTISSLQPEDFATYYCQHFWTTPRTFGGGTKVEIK | nM | 0.0201 |
| K17/H2 Fab (VL-A51Y/W92K, VH-R96D) (Fab, V domains shown, Fab with 8xHis tag) VH: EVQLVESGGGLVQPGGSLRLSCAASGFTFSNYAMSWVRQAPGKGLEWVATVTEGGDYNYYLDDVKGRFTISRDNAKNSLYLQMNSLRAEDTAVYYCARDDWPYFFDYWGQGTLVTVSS VL: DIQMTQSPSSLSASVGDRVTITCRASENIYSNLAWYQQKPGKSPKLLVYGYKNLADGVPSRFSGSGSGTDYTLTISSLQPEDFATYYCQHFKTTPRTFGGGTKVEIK | nM | 0.0293 |
